# credit: PubChem BioAssay AID330

Consider the following molecules and their measured T/C readings.
test system: P388 leukemia ip, CD2F1 mice, survival T/C; test: NCI In Vivo Anticancer Drug Screen. Data for tumor model P388 Leukemia (intraperitoneal) in CD2F1 (CDF1) mice; settings: endpoint: median survival time; dose: 100.0 mg/kg/injection; schedule: Q01DX009 (ip); vehicle: saline with Tween-80; higher = longer survival
Inconclusive results and toxic doses are left out.

> print(dat)
                                   molecule    observed.value
1  CN1c2ccccc2SC12C(=O)N(c1ccccc1)C(=O)N2c1ccccc1 (stereo not drawn)  100 % of control
2  O=C(O)C(Cc1ccc(F)cc1)NC(=O)C(F)(F)F (stereo not drawn)   95 % of control
3              CN(C(=S)Nc1ccccc1)c1nnn(C)n1  100 % of control
4                    CC(=O)CC(=O)CCCCC(=O)O  112 % of control
5              CC(=O)Nc1ccc(C(=O)C(C)=O)cc1  104 % of control

Query string: Item Cn1c(-c2ccccc2)c/c(=N\NS(C)(=O)=O)c2cc(S(=O)(=O)O)ccc21 has what recorded T/C?
Result string: 91 % of control

Query string: And what about the molecule NC(Cc1ccccc1Br)c1nn[nH]n1 (stereo not drawn) ?
Result string: 114 % of control

Query string: What do we get for NC(CO)C(O)c1ccc(N=Nc2ccc(O)cc2)cc1 (stereo not drawn) ?
Result string: 95 % of control

----------
tested on: P388 leukemia ip, CD2F1 mice, survival T/C; test: NCI In Vivo Anticancer Drug Screen. Data for tumor model P388 Leukemia (intraperitoneal) in CD2F1 (CDF1) mice; conditions: endpoint: median survival time; dose: 200.0 mg/kg/injection; schedule: Q01DX005 (ip); vehicle: saline with Tween-80; higher = longer survival
Inconclusive results and toxic doses are left out.
Property Measured: T/C

Examples with their reported T/C follow.
> print(dat)
                                   compound  property.measured    observed.value
1  O=C(CCCCCCCC(=O)Nc1ccc2[nH]c3ccccc3c(=O)c2c1)Nc1ccc2[nH]c3ccccc3c(=O)c2c1                T/C  106 % of control
2  CCCCCCN(CCCCCC)CC(O)c1ccc(Br)c2ccccc12 (centres undefined)                T/C   88 % of control
3                    CC(C)(CO)NCCNC(C)(C)CO                T/C  100 % of control
4  NS(=O)(=O)c1ccc(Nc2c3ccc(Cl)cc3nc3ncccc23)cc1                T/C   94 % of control
5           c1ccc(P2(c3ccccc3)=NSN=S=N2)cc1                T/C  108 % of control

Query string: Any idea what T/C came out for NC(=O)N=Nc1ccc(Cl)c(Cl)c1 on P388 leukemia ip, CD2F1 mice, survival T/C?
Result string: 102 % of control

Query string: Let us now turn to O=C(N/C(=C/c1ccccc1)C(=O)N1CCN(C(=O)/C(=C\c2ccccc2)NC(=O)c2ccccc2)CC1)c1ccccc1
Result string: 93 % of control

Query string: Note, next up: CCB1OC2OC3C4OB(CC)OC4OC3C2O1 (centres undefined)
Result string: 103 % of control

Query string: COc1ccc(-c2coc3c4c(ccc3c2=O)OC(C)(C)C=C4)cc1 ?
Result string: 100 % of control

Query string: Another: CCCN1C(=O)CC(NC(C)=O)C1=O (centres undefined)
Result string: 107 % of control

Query string: Check CCOC(=O)CSc1cc(O)c2ccccc2c1N=Nc1ccc(C(=O)OCC)cc1 too.
Result string: 114 % of control

----------
test system: P388 leukemia ip, CD2F1 mice, survival T/C; assay: NCI In Vivo Anticancer Drug Screen. Data for tumor model P388 Leukemia (intraperitoneal) in CD2F1 (CDF1) mice; details: endpoint: median survival time; dose: 12.5 mg/kg/injection; schedule: Q01DX009 (ip); vehicle: saline
Toxic doses and inconclusive results are not listed. Rule for the calls: active = survival T/C of 150% or more; inactive = T/C below 125% in these data.
A correct response names exactly one class from active, inactive

Look over these answered cases.
> print(dat)
                                   compound                           measured.target     group
1               COc1cccc(C[n+]2ccccc2C#N)c1  P388 leukemia ip, CD2F1 mice, survival T/C  inactive
2                 C=CC(=NC(C)C)N(C)c1ccccc1  P388 leukemia ip, CD2F1 mice, survival T/C  inactive
3                    C(=C\c1ccco1)/c1ccnnc1  P388 leukemia ip, CD2F1 mice, survival T/C  inactive
4  CCCCCC(CN(C)C)C(=O)/C=C/c1ccc(O)cc1 (stereo not drawn)  P388 leukemia ip, CD2F1 mice, survival T/C  inactive
5  CC(=O)SC12CCCN1C(=O)C1(SC(C)=O)CCCN1C2=O (stereo not drawn)  P388 leukemia ip, CD2F1 mice, survival T/C  inactive
6                  CCN(CC)P(=O)(N1CC1)N1CC1  P388 leukemia ip, CD2F1 mice, survival T/C    active

Query string: Could you kindly confirm the outcome this assay logged for COc1ccc2c(c1)OC1COc3cc(OC)c(OC)cc3C1C2=O (stereo not drawn) ?
Result string: inactive

Query string: Would you kindly repeat that for Cc1cn(C2CC3[O][Sn]([c]4ccccc4)([c]4ccccc4)[O]CC3O2)c(=O)[nH]c1=O (stereo not drawn) ?
Result string: inactive

Query string: Please give the result for c1ccc(Nc2nnnn2C2CCCCC2)cc1 too.
Result string: inactive

Query string: Another compound to look at: Cc1nc2[nH]c(=S)[nH]c(=O)c2[nH]c1=O
Result string: inactive

Query string: And COC(C(N)=O)c1ccccc1 (stereo not drawn) ?
Result string: inactive

Query string: // repeat for O=c1[nH]cc(F)c(=O)[nH]1 and report
Result string: active

Query string: Now this one: O/N=C/C=N/O.O/N=C/C=N/O.[Ni]
Result string: inactive

----------
tested on: P388 leukemia ip, CD2F1 mice, survival T/C; test: NCI In Vivo Anticancer Drug Screen. Data for tumor model P388 Leukemia (intraperitoneal) in CD2F1 (CDF1) mice; settings: endpoint: median survival time; dose: 200.0 mg/kg/injection; schedule: Q01DX009 (ip); vehicle: saline; higher = longer survival
Inconclusive results and toxic doses are left out. Square brackets hold non-standard residues; d marks the D form. Peptide text beside a SMILES is read from it. Hpg = N[CH](C(=O)O)c1ccc(O)cc1; Ac5c = NC1(C(=O)O)CCCC1; Sar = CNCC(=O)O
The following molecules are shown together with reported T/C values.

> print(dat)
                  molecule                           measured.target    observed.value
1  N#C/C(=C\c1cccs1)C(N)=S  P388 leukemia ip, CD2F1 mice, survival T/C  100 % of control

Query string: Which T/C is listed for N#C/C(=C\c1c2ccccc2c(Cl)c2ccccc12)C(N)=S ?
Result string: 103 % of control

Query string: Continue with FC(F)(F)c1ccc2nc3c(nc2c1)-c1ccc(Br)c2cccc-3c12
Result string: 99 % of control

Query string: Moving on to C#CCOc1ccccc1O
Result string: 110 % of control

Query string: Then CC(C)CC(N)C(=O)NC(C(N)=O)c1ccc(O)cc1 (stereo unspecified) (H-Leu-[Hpg]-NH2; configuration not given here) ?
Result string: 88 % of control

Query string: Try Nc1nc(N)c2nc(NCc3ccc(C(=O)NC(CCC(=O)O)C(=O)O)cc3)cnc2n1 (stereo unspecified) next.
Result string: 113 % of control

Query string: Then what about the molecule CNCC(=O)NC1(C(=O)O)CCCC1 (H-[Sar]-[Ac5c]-OH) ?
Result string: 109 % of control

----------
tested on: P388 leukemia ip, CD2F1 mice, survival T/C; assay: NCI In Vivo Anticancer Drug Screen. Data for tumor model P388 Leukemia (intraperitoneal) in CD2F1 (CDF1) mice; details: endpoint: median survival time; dose: 25.0 mg/kg/injection; schedule: Q01DX009 (ip); vehicle: saline
Inconclusive results and toxic doses are left out. The calls were made as follows: active = survival T/C of 150% or more; inactive = T/C below 125% in these data.
Mark one answer only. Choices: active, inactive

Past entries and their recorded results:
> print(dat)
                                   molecule     group
1  O=S1(=O)C2C=CCCC1C=C2 (configuration not stated)  inactive
2  CCCCCCCCCC[CH2][Sn]([CH2]CCCCCCCCCC)([CH2]CCCCCCCCCC)[CH2]CCCCCCCCCC  inactive
3  [O-][n+]1ccccc1C1CO1 (configuration not stated)  inactive
4       CCOC(=O)C(=O)Nc1ccc2cc(OC)ccc2c1C#N  inactive
5      C=C[Si](C)(C)c1ccc([Si](C)(C)C=C)cc1  inactive
6                        NNc1ncnc2nc[nH]c12  inactive

Query string: Please indicate how the test categorized S=P(N1CC1)(N1CC1)N1CC1.[Cl-].[Cl-].[NH2-].[NH2-].[Pt+4] .
Result string: inactive

Query string: Another molecule to check: C=C(C)CCC(N)C(=O)O (configuration not stated)
Result string: inactive

Query string: Similarly, Cc1cc(-c2ccc(N=Nc3ccc4c(S(=O)(=O)O)cc(S(=O)(=O)O)c(N)c4c3O)c(C)c2)ccc1N=Nc1ccc2c(S(=O)(=O)O)cc(S(=O)(=O)O)c(N)c2c1O ?
Result string: inactive

Query string: Try this molecule next: CCN(CC)CCCNc1cccc2c(C)cc(OC)nc12
Result string: inactive

Query string: // same read-out, input: COc1cc(N(CCCl)CCCl)c(OC)cc1C=Nc1cccc(Br)c1
Result string: active

Query string: What about this molecule? C=CC(=NC(C)C)N(C)c1ccccc1
Result string: inactive
